target.entity: KCNT1 (KNa1.1, Slack) (Homo sapiens, UniProt Q5JUK3)
Sequence (Q5JUK3 whole entry): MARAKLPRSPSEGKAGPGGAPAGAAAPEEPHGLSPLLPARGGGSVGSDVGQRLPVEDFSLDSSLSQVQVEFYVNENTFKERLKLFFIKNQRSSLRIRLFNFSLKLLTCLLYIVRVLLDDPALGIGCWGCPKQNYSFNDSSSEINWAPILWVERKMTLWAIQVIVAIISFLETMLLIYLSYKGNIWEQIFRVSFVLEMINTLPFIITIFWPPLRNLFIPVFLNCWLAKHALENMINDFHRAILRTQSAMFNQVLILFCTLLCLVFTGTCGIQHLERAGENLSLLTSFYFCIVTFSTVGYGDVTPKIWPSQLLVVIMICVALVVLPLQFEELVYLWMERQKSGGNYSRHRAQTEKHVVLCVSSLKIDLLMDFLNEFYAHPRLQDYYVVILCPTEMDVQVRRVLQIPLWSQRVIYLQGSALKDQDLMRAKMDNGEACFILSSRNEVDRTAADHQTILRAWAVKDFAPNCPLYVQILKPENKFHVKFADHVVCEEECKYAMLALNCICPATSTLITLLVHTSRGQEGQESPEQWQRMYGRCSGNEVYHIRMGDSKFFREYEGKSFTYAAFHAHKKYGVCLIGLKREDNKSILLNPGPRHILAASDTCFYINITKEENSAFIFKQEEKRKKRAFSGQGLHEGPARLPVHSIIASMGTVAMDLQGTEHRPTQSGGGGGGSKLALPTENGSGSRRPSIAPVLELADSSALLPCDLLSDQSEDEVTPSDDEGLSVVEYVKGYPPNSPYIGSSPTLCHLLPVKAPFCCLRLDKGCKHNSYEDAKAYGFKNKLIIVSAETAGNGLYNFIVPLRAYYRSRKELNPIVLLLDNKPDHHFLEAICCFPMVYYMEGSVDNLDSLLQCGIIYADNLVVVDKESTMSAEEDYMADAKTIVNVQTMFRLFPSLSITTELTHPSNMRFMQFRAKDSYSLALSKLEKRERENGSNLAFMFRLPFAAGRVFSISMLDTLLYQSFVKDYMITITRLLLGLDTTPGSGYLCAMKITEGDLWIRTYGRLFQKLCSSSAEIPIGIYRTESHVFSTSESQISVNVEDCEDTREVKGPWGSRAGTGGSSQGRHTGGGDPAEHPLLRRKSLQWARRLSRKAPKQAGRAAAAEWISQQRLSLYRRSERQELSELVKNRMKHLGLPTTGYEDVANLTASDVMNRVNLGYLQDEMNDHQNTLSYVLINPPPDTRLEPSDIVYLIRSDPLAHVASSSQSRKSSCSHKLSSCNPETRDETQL
measurement.notes: KCNT1 patch clamp assay (SyncroPatch 384PE automated patch clamp)
test.parameters: tetracycline inducible cell line (HEK-TREX); perforated patch mode; step from -80 mV to 0 mV; room temperature; read-out: KCNT1-WT IC50
List of IC50 values.

Reference set (2 entries):
CNS(=O)(=O)c1ccc(C(=O)NCc2ccc(C(C)(C)C#N)cc2)s1    1 to 20 µM
CNS(=O)(=O)c1ccc(C(=O)N[C@@H](C)c2ccc(Cl)cc2Cl)s1    ≤ 1 µM

Let us examine a further case.
Prompt: // query IC50 value for entry CNS(=O)(=O)c1ccc(C(=O)NCc2ccc(Cl)cc2Br)s1
Completion: ≤ 1 µM
